biological target: human Siglec-7 on primary human monocyte-derived dendritic cells (human, UniProt Q9Y286 19-467); test: cell-based or functional assay
Sequence (Q9Y286 19-467): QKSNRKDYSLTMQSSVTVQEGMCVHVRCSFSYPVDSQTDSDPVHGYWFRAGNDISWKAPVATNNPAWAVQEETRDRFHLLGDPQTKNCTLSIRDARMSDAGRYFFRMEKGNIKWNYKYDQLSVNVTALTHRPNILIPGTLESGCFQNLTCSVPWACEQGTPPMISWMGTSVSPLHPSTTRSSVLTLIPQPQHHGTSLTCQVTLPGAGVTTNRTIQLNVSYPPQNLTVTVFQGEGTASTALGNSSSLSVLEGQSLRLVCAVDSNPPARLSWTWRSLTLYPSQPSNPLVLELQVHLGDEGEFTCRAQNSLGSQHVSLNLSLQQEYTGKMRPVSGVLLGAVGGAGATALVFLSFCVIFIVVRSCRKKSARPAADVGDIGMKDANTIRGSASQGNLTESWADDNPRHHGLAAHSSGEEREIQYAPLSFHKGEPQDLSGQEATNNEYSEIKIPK
Fold increase in potency compared to AB-H8 reference
Use fold as the unit, but write only the number.

S7AB-H8.25 (antibody, V domains shown) VH: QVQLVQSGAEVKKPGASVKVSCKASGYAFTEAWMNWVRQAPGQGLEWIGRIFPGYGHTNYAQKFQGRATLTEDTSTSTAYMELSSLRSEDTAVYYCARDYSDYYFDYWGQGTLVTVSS VL: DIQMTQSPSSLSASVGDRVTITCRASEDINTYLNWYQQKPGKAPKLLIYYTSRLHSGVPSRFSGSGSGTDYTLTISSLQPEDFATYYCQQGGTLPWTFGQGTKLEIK | 1.8

Data request: What value of Fold increase in potency compared to AB-H8 has been reported for the following binder? S7AB-H8.28 (antibody, V domains shown) VH: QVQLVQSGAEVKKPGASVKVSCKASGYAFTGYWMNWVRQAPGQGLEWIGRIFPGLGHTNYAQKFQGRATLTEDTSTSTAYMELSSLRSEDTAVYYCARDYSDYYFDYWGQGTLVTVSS VL: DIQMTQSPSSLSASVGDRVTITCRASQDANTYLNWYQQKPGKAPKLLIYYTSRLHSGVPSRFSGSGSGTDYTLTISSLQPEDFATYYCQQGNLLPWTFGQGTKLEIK
Data returned: 4.6

Data request: What value of Fold increase in potency compared to AB-H8 has been reported for the following binder? S7AB-H8.13 (antibody, V domains shown) VH: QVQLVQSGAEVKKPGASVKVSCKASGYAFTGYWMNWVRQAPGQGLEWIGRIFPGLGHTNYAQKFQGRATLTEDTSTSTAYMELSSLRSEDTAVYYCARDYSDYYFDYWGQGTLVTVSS VL: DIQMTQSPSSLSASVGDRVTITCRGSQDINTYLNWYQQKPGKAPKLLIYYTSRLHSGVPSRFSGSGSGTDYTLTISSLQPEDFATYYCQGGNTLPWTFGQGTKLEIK
Data returned: 0.1

Data request: What value of Fold increase in potency compared to AB-H8 has been reported for the following binder? S7AB-H8.35 (antibody, V domains shown) VH: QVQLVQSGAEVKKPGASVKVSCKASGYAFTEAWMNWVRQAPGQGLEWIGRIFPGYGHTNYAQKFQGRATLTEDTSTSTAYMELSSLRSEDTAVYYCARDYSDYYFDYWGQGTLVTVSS VL: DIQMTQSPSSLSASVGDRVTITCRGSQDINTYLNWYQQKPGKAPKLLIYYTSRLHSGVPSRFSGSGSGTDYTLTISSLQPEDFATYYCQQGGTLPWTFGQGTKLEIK
Data returned: 1.6

Data request: What value of Fold increase in potency compared to AB-H8 has been reported for the following binder? S7AB-H8.26 (antibody, V domains shown) VH: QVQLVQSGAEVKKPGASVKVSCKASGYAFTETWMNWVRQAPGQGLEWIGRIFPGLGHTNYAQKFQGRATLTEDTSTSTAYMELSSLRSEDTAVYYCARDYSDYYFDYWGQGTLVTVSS VL: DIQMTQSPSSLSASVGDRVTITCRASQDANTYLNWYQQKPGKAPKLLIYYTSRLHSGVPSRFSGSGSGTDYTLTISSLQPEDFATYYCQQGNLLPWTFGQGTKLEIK
Data returned: 1.9

Provenance of the data: patent US20210246204A1
